System: 855422-203-R-J1-PDC complex spheroid viability
Test: Anticancer human tumor 855422-203-R-J1-PDC patient-derived bladder carcinoma cell line growth inhibition; active means viability on the fitted dose curve at most 10% of control; inactive means the rest
Conditions: second compound 3.16 µM; first compound 0.001 µM
Select the correct class. Options are YES = active, NO = inactive and nothing else.

>  <COMPOUND>
Cn1ncnc1C1c2n[nH]c(=O)c3cc(F)cc(c23)NC1c1ccc(F)cc1 (stereo not given) + NC1CCC(NC2CC2c2ccccc2)CC1

>  <EXPERIMENTAL_TARGET>
855422-203-R-J1-PDC complex spheroid viability

>  <GROUP>
NO

$$$$
>  <COMPOUND>
CC[C@@]1(O)C(=O)OCc2c1cc1n(c2=O)Cc2cc3c(CN(C)C)c(O)ccc3nc2-1 + NC1CC1c1ccc(-c2cccc(O)c2)cc1

>  <EXPERIMENTAL_TARGET>
855422-203-R-J1-PDC complex spheroid viability

>  <GROUP>
NO

$$$$
>  <COMPOUND>
CC(C)CC(NC(=O)C(Cc1ccccc1)NC(=O)c1cnccn1)B(O)O (stereo not given) + NC1CCC(NC2CC2c2ccccc2)CC1

>  <EXPERIMENTAL_TARGET>
855422-203-R-J1-PDC complex spheroid viability

>  <GROUP>
YES

$$$$
>  <COMPOUND>
Cn1ncnc1C1c2n[nH]c(=O)c3cc(F)cc(c23)NC1c1ccc(F)cc1 (stereo not given) + NC1CC1c1ccc(-c2cccc(O)c2)cc1

>  <EXPERIMENTAL_TARGET>
855422-203-R-J1-PDC complex spheroid viability

>  <GROUP>
NO

$$$$

Now let's try a different one.
Assay result, entry CC(C)CC(NC(=O)C(Cc1ccccc1)NC(=O)c1cnccn1)B(O)O (stereo not given) + NC1CC1c1ccc(-c2cccc(O)c2)cc1 — outcome?
YES

----------
Tested on: 855422-203-R-J1-PDC complex spheroid viability
Experiment: Anticancer human tumor 855422-203-R-J1-PDC cell line growth inhibition;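 further: drug exposure lasted 7 days starting on day 3 after seeding; luminescence viability as percent of DMSO vehicle wells = 100%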
Conditions: second compound 0.316 µM; first compound 0.316 µM; hits give low values
Listed here: items and their measured viability, T/C.
Hi! Could you send only the number? It should be in %, unit omitted.

Completed entries (count: 3):
>  <COMPOUND>
COc1cc(Nc2ncc3c(n2)-c2ccc(Cl)cc2C(c2c(F)cccc2OC)=NC3)ccc1C(=O)O + NC1CCC(NC2CC2c2ccccc2)CC1

>  <EXPERIMENTAL_TARGET>
855422-203-R-J1-PDC complex spheroid viability

>  <viability, T/C, %>
64.2

$$$$
>  <COMPOUND>
CC1COCCN1c1cc(C2(S(C)(=N)=O)CC2)nc(-c2ccnc3[nH]ccc23)n1 (stereo unspecified) + NC1CC1c1ccc(-c2cccc(O)c2)cc1

>  <EXPERIMENTAL_TARGET>
855422-203-R-J1-PDC complex spheroid viability

>  <viability, T/C, %>
97.2

$$$$
>  <COMPOUND>
Nc1ncn(C2CC(O)C(CO)O2)c(=O)n1 (stereo unspecified) + NC1CC1c1ccc(-c2cccc(O)c2)cc1

>  <EXPERIMENTAL_TARGET>
855422-203-R-J1-PDC complex spheroid viability

>  <viability, T/C, %>
90.3

$$$$

Name the recorded viability, T/C for O=C(C=Cn1cnc(-c2cc(C(F)(F)F)cc(C(F)(F)F)c2)n1)NNc1cnccn1 + NC1CCC(NC2CC2c2ccccc2)CC1 .
39.5

Name the recorded viability, T/C for CC1(C)CCC(CN2CCN(c3ccc(C(=O)NS(=O)(=O)c4ccc(NCC5CCOCC5)c([N+](=O)[O-])c4)c(Oc4cnc5[nH]ccc5c4)c3)CC2)=C(c2ccc(Cl)cc2)C1 + NC1CC1c1ccc(-c2cccc(O)c2)cc1 .
101

Name the recorded viability, T/C for COc1cc(Nc2ncc3c(n2)-c2ccc(Cl)cc2C(c2c(F)cccc2OC)=NC3)ccc1C(=O)O + NC1CC1c1ccc(-c2cccc(O)c2)cc1 .
49.9
